- Tested on: SARS-CoV-2 replicon
- Format: cell-based
- TEST SETTINGS: read-out: SARS-CoV-2 Replicon (Huh-7cell) EC50
Catalogue of compounds with associated EC50

{"COMPOUND": "CCCCCOC(=O)C[C@H](N[P@](=O)(OC[C@H]1O[C@@](C#N)(c2ccc3c(N)ncnn23)[C@H](OC(=O)C(C)C)[C@@H]1OC(=O)C(C)C)Oc1ccc(C(C)(C)C)cc1)C(=O)OCCCCC [Compound 39b]", "TEST TARGET": "SARS-CoV-2 replicon", "READING": "10 to 50 nM"}
{"COMPOUND": "[2H]c1cc([C@]2(C#N)O[C@H](COP(=O)(OCOC(=O)OC(C)C)OCOC(=O)OC(C)C)[C@@H](OC(=O)C(C)C)[C@H]2OC(=O)C(C)C)n2ncnc(N)c12", "TEST TARGET": "SARS-CoV-2 replicon", "READING": "< 5 nM"}
{"COMPOUND": "CCC(CC)COC(=O)[C@H](C)N[P@](=O)(OCOC(=O)C(C)(C)C)OC[C@H]1O[C@@](C#N)(c2ccc3c(N)ncnn23)[C@H](OC(=O)C(C)(C)C)[C@@H]1OC(=O)C(C)(C)C [Compound 12a]", "TEST TARGET": "SARS-CoV-2 replicon", "READING": "50 to 500 nM"}
{"COMPOUND": "CC(C)C(=O)OCO[P@@](=O)(OC[C@H]1O[C@@](C#N)(c2ccc3c(N)ncnn23)[C@H](OC(=O)C(C)C)[C@@H]1OC(=O)C(C)C)Oc1ccc(C(C)(C)C)cc1 [Compound 26a]", "TEST TARGET": "SARS-CoV-2 replicon", "READING": "5 to 10 nM"}
{"COMPOUND": "CCC(=O)O[C@H]1[C@@H](OC(=O)CC)[C@](C#N)(c2ccc3c(N)ncnn23)O[C@@H]1CO[P@](=O)(N[C@@H](C)C(=O)OC(C)C)OCOC(=O)OC(C)C", "TEST TARGET": "SARS-CoV-2 replicon", "READING": "5 to 10 nM"}

Data request: Query (compound): CC(=O)O[C@H]1[C@@H](OC(C)=O)[C@](C#N)(c2ccc3c(N)ncnn23)O[C@@H]1CO[P@@](=O)(OCOC(=O)OC(C)C)Oc1ccc(C(C)(C)C)cc1 [Compound 22b] ; field requested: EC50
Data returned: 5 to 10 nM

Data request: Similarly, CC(C)C(=O)OCOP(=O)(OCOC(=O)C(C)C)OC[C@H]1O[C@@](C#N)(c2ccc3c(N)ncnn23)[C@H](OC(=O)C(C)C)[C@@H]1OC(=O)C(C)C ?
Data returned: ≤ 5 nM

Data request: Similarly, CCC(CC)COC(=O)[C@H](Cc1ccccc1)N[P@](=O)(OC[C@H]1O[C@@](C#N)(c2ccc3c(N)ncnn23)[C@H](OC(=O)C(C)C)[C@@H]1OC(=O)C(C)C)Oc1ccc(C(C)(C)C)cc1 [Compound 53b] ?
Data returned: 10 to 50 nM

Data request: Similarly, CCCCCCCCCCCCOC(=O)[C@H](C)N[P@@](=O)(OC[C@H]1O[C@@](C#N)(c2ccc3c(N)ncnn23)[C@H](OC(=O)C(C)C)[C@@H]1OC(=O)C(C)C)Oc1ccccc1 [Compound 46a] ?
Data returned: 50 to 500 nM

Data request: Similarly, CC(C)OC(=O)OCOP(=O)(OCOC(=O)OC(C)C)OC[C@H]1O[C@@](C#N)(c2ccc3c(N)ncnn23)[C@H](OC(=O)C(C)C)[C@@H]1OC(=O)C(C)C ?
Data returned: < 5 nM

Data request: Similarly, COC(C)(C)COC(=O)[C@H](Cc1ccccc1)N[P@@](=O)(OC[C@H]1O[C@@](C#N)(c2ccc3c(N)ncnn23)[C@H](OC(=O)C(C)C)[C@@H]1OC(=O)C(C)C)Oc1ccccc1 [Compound 64a] ?
Data returned: < 5 nM

Data request: Similarly, CCCCCCCCCCCCCCCCOCCCOP(=O)(OCOC(=O)OC(C)C)OC[C@H]1O[C@@](C#N)(c2ccc3c(N)ncnn23)[C@H](OC(=O)C(C)C)[C@@H]1OC(=O)C(C)C (mixture of isomers) ?
Data returned: 50 to 500 nM

Data request: Similarly, CC(=O)O[C@H]1[C@@H](OC(C)=O)[C@](C#N)(c2ccc3c(N)ncnn23)O[C@@H]1CO[P@](=O)(OCOC(=O)OC(C)C)Oc1ccc(C(C)(C)C)cc1 [Compound 22a] ?
Data returned: < 5 nM

Data request: Similarly, CCCCC/C=C\C/C=C\CCCCCCCCOC(=O)[C@H](C)NP(=O)(OCOC(=O)C(C)(C)C)OC[C@H]1O[C@@](C#N)(c2ccc3c(N)ncnn23)[C@H](OC(=O)C(C)C)[C@@H]1OC(=O)C(C)C (stereo partly shown) ?
Data returned: 50 to 500 nM

Data request: Similarly, CCCCCOC(=O)C[C@H](N[P@@](=O)(OC[C@H]1O[C@@](C#N)(c2ccc3c(N)ncnn23)[C@H](OC(=O)C(C)C)[C@@H]1OC(=O)C(C)C)Oc1ccc(C(C)(C)C)cc1)C(=O)OCCCCC [Compound 39a] ?
Data returned: 50 to 500 nM

Data request: Similarly, CCC(CC)COC(=O)[C@H](C)N[P@](=O)(OCc1ccccc1C)OC[C@H]1O[C@@](C#N)(c2ccc3c(N)ncnn23)[C@H](OC(=O)C(C)C)[C@@H]1OC(=O)C(C)C [Compound 16a] ?
Data returned: 50 to 500 nM

Data request: Similarly, CCCCCOC(=O)C[C@H](N[P@](=O)(OC[C@H]1O[C@@](C#N)(c2ccc3c(N)ncnn23)[C@H](OC(=O)C(C)C)[C@@H]1OC(=O)C(C)C)Oc1ccccc1)C(=O)OCCCCC [Compound 38b] ?
Data returned: 10 to 50 nM

Data request: Similarly, CC(C)C(=O)O[C@H]1[C@@H](OC(=O)C(C)C)[C@](C#N)(c2ccc3c(N)ncnn23)O[C@@H]1COP(=O)(OCCSC(=O)C(C)(C)C)OCCSC(=O)C(C)(C)C ?
Data returned: < 5 nM

Data request: Similarly, CCC(=O)O[C@H]1[C@@H](OC(=O)CC)[C@](C#N)(c2ccc3c(N)ncnn23)O[C@@H]1CO[P@@](=O)(OCOC(=O)OC(C)C)Oc1ccc(C(C)(C)C)cc1 [Compound 23b] ?
Data returned: 5 to 10 nM

* * *

- Test system: SARS-CoV-2 replicon
- Type: cell-based
- TEST SETTINGS: read-out: SARS-CoV-2 Replicon (Huh-7cell) EC50
METRIC NAME: EC50

Field: example entries. Status: answers known.
{"COMPOUND": "CC(C)OC(=O)OCO[P@](=O)(OC[C@H]1O[C@@](C#N)(c2ccc3c(N)ncnn23)[C@H](OC(=O)C(C)C)[C@@H]1OC(=O)C(C)C)Oc1ccc(C(C)(C)C)cc1 [Compound 24b]", "EC50": "0.01 to 0.05 µM"}
{"COMPOUND": "CCC(CC)COC(=O)C1(N[P@@](=O)(OCOC(=O)OC(C)C)OC[C@H]2O[C@@](C#N)(c3ccc4c(N)ncnn34)[C@H](OC(=O)C(C)C)[C@@H]2OC(=O)C(C)C)CCC1 [Compound 32b]", "EC50": "0.01 to 0.05 µM"}
{"COMPOUND": "CCC(=O)O[C@H]1[C@@H](OC(=O)CC)[C@](C#N)(c2ccc3c(N)ncnn23)O[C@@H]1CO[P@@](=O)(N[C@@H](C)C(=O)OCC(CC)CC)OCOC(=O)OC(C)C [Compound 6b]", "EC50": "≤ 0.005 µM"}

Data request: Query (compound): CCC(CC)COC(=O)[C@H](C)N[P@](=O)(OCOC(=O)OC(C)C)OC[C@H]1O[C@@](C#N)(c2ccc3c(N)ncnn23)[C@H](OC(=O)C(C)C)[C@@H]1OC(=O)C(C)C [Compound 7a] ; field requested: EC50
Data returned: 0.01 to 0.05 µM

Data request: Similarly, CC(C)C(=O)O[C@H]1[C@@H](OC(=O)C(C)C)[C@](C#N)(c2ccc3c(N)ncnn23)O[C@@H]1CO[P@@](=O)(N[C@@H](CC(=O)OC1CCC1)C(=O)OC1CCC1)Oc1ccccc1 [Compound 54b] ?
Data returned: < 0.005 µM

* * *

- System: SARS-CoV-2 replicon
- Assay type: cell-based
- TEST SETTINGS: read-out: SARS-CoV-2 Replicon (Huh-7cell) EC50
METRIC NAME: EC50

Field: example entries. Status: answers known.
{"COMPOUND": "CC(C)C(=O)O[C@H]1[C@@H](OC(=O)C(C)C)[C@](C#N)(c2ccc3c(N)ncnn23)O[C@@H]1CO[P@](=O)(N[C@@H](Cc1ccccc1)C(=O)OC1CCC1)Oc1ccccc1 [Compound 63a]", "EC50": "10 to 50 nM"}
{"COMPOUND": "CC(C)C(=O)O[C@H]1[C@@H](OC(=O)C(C)C)[C@](C#N)(c2ccc3c(N)ncnn23)O[C@@H]1COP(=O)(OCCSC(=O)C(C)(C)C)Oc1ccc(C(C)(C)C)cc1 (mixture of isomers)", "EC50": "10 to 50 nM"}

As a next step, examine the compound that follows.
Data request: Query (compound): CCC(=O)O[C@H]1[C@@H](OC(=O)CC)[C@](C#N)(c2ccc3c(N)ncnn23)O[C@@H]1CO[P@](=O)(N[C@@H](C)C(=O)OCC(CC)CC)OCOC(=O)OC(C)C ; field requested: EC50
Data returned: 5 to 10 nM

Attribution: patent EP4617278A1
